These entries and their values trace back to patent US12552798B2.

# assayedSystem: EGFR (Homo sapiens (Human))
# Sequence (P00533 25-1210): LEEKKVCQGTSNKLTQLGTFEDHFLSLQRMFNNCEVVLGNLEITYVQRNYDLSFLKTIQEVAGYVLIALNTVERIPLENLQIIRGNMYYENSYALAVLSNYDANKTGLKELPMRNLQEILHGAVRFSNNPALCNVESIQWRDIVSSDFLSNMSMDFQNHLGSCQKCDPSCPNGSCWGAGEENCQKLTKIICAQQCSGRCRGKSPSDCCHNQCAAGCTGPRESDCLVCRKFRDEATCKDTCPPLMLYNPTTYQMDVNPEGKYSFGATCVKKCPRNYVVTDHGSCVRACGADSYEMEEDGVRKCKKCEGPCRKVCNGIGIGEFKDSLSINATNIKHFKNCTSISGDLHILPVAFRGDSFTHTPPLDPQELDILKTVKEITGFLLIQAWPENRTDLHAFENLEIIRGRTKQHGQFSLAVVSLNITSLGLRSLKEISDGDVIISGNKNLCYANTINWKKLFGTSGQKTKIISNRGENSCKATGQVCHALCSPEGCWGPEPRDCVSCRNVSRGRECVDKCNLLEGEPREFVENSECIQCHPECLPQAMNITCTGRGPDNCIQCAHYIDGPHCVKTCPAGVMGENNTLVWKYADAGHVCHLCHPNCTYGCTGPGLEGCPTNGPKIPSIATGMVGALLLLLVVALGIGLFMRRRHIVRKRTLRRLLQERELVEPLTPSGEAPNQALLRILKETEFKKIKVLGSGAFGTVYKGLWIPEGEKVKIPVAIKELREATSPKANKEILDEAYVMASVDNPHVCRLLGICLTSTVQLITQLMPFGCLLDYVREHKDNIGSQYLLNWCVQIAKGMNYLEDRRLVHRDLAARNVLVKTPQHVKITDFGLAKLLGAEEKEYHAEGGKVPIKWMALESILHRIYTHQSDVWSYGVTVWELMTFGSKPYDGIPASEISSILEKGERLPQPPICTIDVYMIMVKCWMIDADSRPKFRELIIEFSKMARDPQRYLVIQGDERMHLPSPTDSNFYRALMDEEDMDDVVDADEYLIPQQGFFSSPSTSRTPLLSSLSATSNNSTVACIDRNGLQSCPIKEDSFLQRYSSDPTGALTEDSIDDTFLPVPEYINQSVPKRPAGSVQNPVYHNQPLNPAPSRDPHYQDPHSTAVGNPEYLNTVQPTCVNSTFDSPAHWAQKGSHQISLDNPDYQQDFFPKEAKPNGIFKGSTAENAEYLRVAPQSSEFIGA
Lab note: compare IC50 with 30 nM, writing MET if less and NOT MET if equal or more.

Here are 2 compounds together with their reported answers.
{"columns": ["compound", "classAssignment"],
 "data": [
  ["NC(=O)c1c(-c2ccc(Oc3ccccc3)cc2)nc2n1NCCC2C1CCN(C(=O)/C=C/C(F)(F)F)CC1 (single isomer, unassigned) [10b (peak 2)]", "NOT MET"],
  ["C=CC(=O)Nc1ccccc1C1CCNn2c1nc(-c1ccc(Oc3ccccc3)cc1)c2C(N)=O (centres unmarked)", "MET"]
]}

q: Is IC50 of C=CC(=O)N1CCC(C2CCNn3c2nc(-c2ccc(Oc4ccccc4)cc2)c3C(N)=O)CC1 (single isomer, unassigned) [1a (peak 1)] strictly below 30 nM?
a: MET

q: Answer whether the compound NC(=O)c1c(-c2ccc(Oc3ccccc3)cc2)nc2n1NCCC2C1CCN(C(=O)/C=C/C(F)(F)F)CC1 (single isomer, unassigned) [10a (peak 1)] has IC50 strictly less than 30 nM
a: NOT MET

q: Below 30 nM on IC50? Entry C=CC(=O)N1CCC(C2CCn3c2nc(-c2ccc(Oc4ccccc4)cc2)c3C(N)=O)CC1 (centres unmarked)
a: NOT MET
